assayed.system: Serotonin 5-HT2A (human) (Homo sapiens (Human), UniProt P28223)
test.summary: 5-HT2A receptor binding, [3H]-ketanserin competition in membrane fractions
settings: 1 nM [3H]-ketanserin, Cheng-Prusoff, N=1-3
measured.metric: 5-HT2A pKi ± SEM

molecule | assayed.system | measured.metric | measured
C#CCN(CCc1c[nH]c2ccc(F)cc12)C(C)C [compound 34] | Serotonin 5-HT2A (human) (Homo sapiens (Human), UniProt P28223) | 5-HT2A pKi ± SEM | 5.78
CCC(C)N(CCc1c[nH]c2ccc(F)cc12)C1CC1 (centres unmarked) [compound 172] | Serotonin 5-HT2A (human) (Homo sapiens (Human), UniProt P28223) | 5-HT2A pKi ± SEM | 6.47
CN1CCC[C@@H]1Cc1c[nH]c2c(F)cccc12 [compound 186] | Serotonin 5-HT2A (human) (Homo sapiens (Human), UniProt P28223) | 5-HT2A pKi ± SEM | 6.47
CN(CCc1c[nH]c2ccc(F)cc12)C1CC1 [compound 160] | Serotonin 5-HT2A (human) (Homo sapiens (Human), UniProt P28223) | 5-HT2A pKi ± SEM | 7.41
CN(CCc1c[nH]c2ccc(F)cc12)C1CCC1 [compound 51] | Serotonin 5-HT2A (human) (Homo sapiens (Human), UniProt P28223) | 5-HT2A pKi ± SEM | 6.80
